target: human NK3 receptor (Homo sapiens); construct: expressed in transfected cells; membranes prepared from them; experiment: NK3 receptor binding assay (SPA-based competition binding with 125I-NKB); details: read-out: Affinity (Ki/nM); further: competition with app 0.02 nM 125I-NKB
Sequence (P29371 whole entry): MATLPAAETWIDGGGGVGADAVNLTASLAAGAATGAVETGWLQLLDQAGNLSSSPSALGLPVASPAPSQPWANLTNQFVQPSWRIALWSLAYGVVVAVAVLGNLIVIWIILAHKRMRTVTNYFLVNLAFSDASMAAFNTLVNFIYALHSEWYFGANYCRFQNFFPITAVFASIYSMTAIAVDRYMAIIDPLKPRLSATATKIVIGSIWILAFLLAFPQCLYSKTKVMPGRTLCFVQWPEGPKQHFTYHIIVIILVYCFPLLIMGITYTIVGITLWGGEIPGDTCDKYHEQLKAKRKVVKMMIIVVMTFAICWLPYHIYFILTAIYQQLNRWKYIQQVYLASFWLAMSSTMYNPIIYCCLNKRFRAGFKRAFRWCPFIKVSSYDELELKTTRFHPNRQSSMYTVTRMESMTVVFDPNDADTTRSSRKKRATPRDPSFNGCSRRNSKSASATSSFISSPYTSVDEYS
The reader will find reported Ki values listed item by item below.
The answer is to be given in nM; state only the numeric part.

// below: answered compounds
CCNn1c(C)c(C(=O)N[C@H](c2ccc(F)cc2)C2CC2)c2cccc(F)c2c1=O
28
CCNn1c(C)c(C(=O)N[C@H](c2ccccc2)C2CC2)c2cccc(F)c2c1=O
27
COCCn1c(C)c(C(=O)N[C@H](c2cccc(F)c2)C2CC2)c2cccc(F)c2c1=O
76

Please state recorded Ki (tested on human NK3 receptor (Homo sapiens)) of `Cc1c(C(=O)N[C@H](c2cccc(F)c2)C2CCC2)c2cccc(F)c2c(=O)n1CCO`
160

====

molecular target: human NK3 receptor (Homo sapiens); construct: expressed in transfected cells; membranes prepared from them; assay: NK3 receptor efficacy and potency assay (FLIPR Calcium 4); format: cell-based; conditions: read-out: Potency (cIC50/nM)
Sorting guide: entries reporting IC50 beneath 400 nM go in the y pile, the rest go in the n pile.

Some solved cases for reference:
Cc1c(C(=O)N[C@H](c2cccc(F)c2)C2CC2)c2cccc(F)c2c(=O)n1[C@@H]1CCN(C)C1
n
COCCn1c(C)c(C(=O)N[C@H](c2cccc(F)c2)C2CC2)c2cccc(F)c2c1=O
y
CCCn1c(CN2CCNCC2)c(C(=O)N[C@H](c2cccc(F)c2)C2CC2)c2cccc(F)c2c1=O
y

In the record for `CC[C@H](NC(=O)c1c(C)n(NCC(C)(C)C)c(=O)c2ccccc12)c1ccccc1` , is IC50 less than 400 nM?
n

hey, is IC50 for `O=C(N[C@H](c1cccc(F)c1)C1CC1)c1c(CN2CCCC2=O)n(CCC(F)(F)F)c(=O)c2c(F)cccc12` lower than 400 nM or not?
y

Consider the compound `CCNn1c(C)c(C(=O)N[C@H](c2cccc(F)c2)C2CC2)c2cccc(F)c2c1=O` . Is its IC50 strictly less than 400 nM?
y

Consider `CC[C@H](NC(=O)c1c(C)n(CCSC)c(=O)c2ccccc12)c1ccccc1` . Does its IC50 lie strictly below 400 nM?
n

Check if IC50 falls below 400 nM for `Cc1c(C(=O)N[C@H](c2cccc(F)c2)C2CC2)c2cccc(F)c2c(=O)n1C[C@@H]1CCCN1C` .
y

Dear reviewer, please state whether `CCCn1c(CN2CCCC2=O)c(C(=O)N[C@H](c2cccc(F)c2)C2CC2)c2cccc(F)c2c1=O` has IC50 strictly beneath 400 nM.
y

Determine if `CCOn1c(C)c(C(=O)N[C@H](c2cccc(F)c2)C2CCC2)c2cccc(F)c2c1=O` shows IC50 strictly lower than 400 nM.
y

Bench note: check whether `CCCn1c(CN2CCNCC2)c(C(=O)N[C@H](c2cccc(F)c2)C2CCC2)c2cccc(F)c2c1=O` shows IC50 below 400 nM
y

# strict comparison: is reported IC50 < 400 nM? input = `Cc1c(C(=O)N[C@H](c2cccc(F)c2)C2CCC2)c2cccc(F)c2c(=O)n1CCO`
y

Hello, I'm reviewing records and need to know if IC50 of `Cc1c(C(=O)N[C@H](c2cccc(F)c2)C2CCC2)c2cccc(F)c2c(=O)n1C[C@H]1CCCN1` is below 400 nM. Could you check?
y

API: query returns whether the compound falls strictly under 400 nM in IC50. Query: `Cc1c(C(=O)N[C@H](c2cccc(F)c2)C2CC2)c2cccc(F)c2c(=O)n1[C@@H]1CCNC1`
n

Hello, is IC50 of the following compound strictly smaller than 400 nM? `CC[C@H](NC(=O)c1c(C)n(C2CCCC2)c(=O)c2ccccc12)c1ccccc1`
n

Strictly below 400 nM in IC50? `CCNn1c(C)c(C(=O)N[C@@H](CC)c2ccccc2)c2cccc(Cl)c2c1=O`
y

Report whether reported IC50 is lower than 400 nM (strictly) for `CC[C@H](NC(=O)c1c(C)n(NCC(C)C)c(=O)c2ccccc12)c1ccccc1`
y
